assay: NCI Yeast Anticancer Drug Screen. Data for the rad50 strain (AID 155);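 note: 0% = growth of vehicle-only cultures of the same strain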; conditions: S. cerevisiae rad50 strain growth inhibition; at 50.0 µM
Compounds without any hit were thinned out: in the full panel of roughly 79,000, 15% have a hit. Activity calls are given as the source filed them. Cut-off read from the data, not from the text of the source: active = growth inhibition above about 70%; inactive = the rest.
Please answer using one outcome listed in yes for active, no for inactive

Example cases with answers are listed next.
>>> df
                                   compound  label
0  CCOC(=O)CC1(C)c2nc(NC(C)=O)sc2Cc2sc(NC(C)=O)nc21     no
1      O=C(COc1cc(Cl)c(Cl)cc1Cl)Nc1ccccc1Br     no
2  COc1cc(Br)c(C=Nc2cccc3ccc(OS(=O)(=O)c4ccc([N+](=O)[O-])cc4)cc23)cc1OC     no
3  OCCC(CO)Cc1ccc2c(c1)OCO2 (stereo not given)     no
4  O=Cc1cc(C(=O)c2ccccn2)c2cc(Cl)cc(Cl)c2n1     no

Test call for this compound, please: O=C1C=C(Nc2ccccc2C(=O)CC(=O)C(=O)Nc2cccc([N+](=O)[O-])c2)c2ccccc2C1=O
no

Please share the test call associated with CC(C)=CC1C(COC(=O)c2ccccc2Cl)C1(C)C (stereo not given) .
no

Test call, this compound: COc1cc(C(=O)OC2CC3CN(CCc4c[nH]c5ccccc45)CC3CC2OC)cc(OC)c1OC (stereo not given)
no

Write down the call the test reported for this compound. Item: COC(=O)CC1C(=O)OC23CCC1C2(C)CCC1C3CCC2CC(OC(C)=O)CCC21C (stereo not given)
yes

Recorded test call requested for C=CCOCOC(C)C(=O)OCC (stereo not given)
no

* * *

assay: NCI Yeast Anticancer Drug Screen. Data for the mec2-1 strain (AID 157); conditions: S. cerevisiae mec2-1 strain, at 50.0 µM
Compounds without any hit were thinned out: in the full panel of roughly 79,000, 15% have a hit. Activity calls are given as the source filed them. No stated cut-off is given here; in the data, active means growth inhibition above about 70%; inactive means the rest.
Tick one outcome: active, inactive

// known answers, use as guide
>>> df
                                   molecule     label
0               Nc1ncnc2c1cnn2-c1ccc(Cl)cc1  inactive
1        O=C1c2cccnc2-c2nccc3c2c1nc1ccccc13    active
2          C=CCOCn1ccc(NC(=O)c2ccccc2)nc1=O  inactive
3  COc1ccccc1C1OC2=C(Nc3ccc([N+](=O)[O-])cc3N2)C1=O (stereo not drawn)  inactive
4  CC(=O)N(C)C1=C(Sc2ccc([N+](=O)[O-])cc2)C(=O)c2ccccc2C1=O    active
5  CC(C)=CC(=O)OC1C2C(C)=CC(O)C(O)C2(C)C2C3(O)OCC24C(CC(=O)OC14)C(C)C3O (stereo not drawn)  inactive
6  CC(C)CC(NC(=O)C(CS)NC(=O)CN1C(=O)CCC1=O)C(N)=O (stereo not drawn)  inactive
7                   CCCCNC(=O)Nc1cc(C)ccc1C  inactive
8                  Nc1ccc(C(=O)Nc2nccs2)cc1  inactive
9  COc1cccc(-c2nc(SCC(N)=O)[nH]c(=O)c2C#N)c1  inactive

How did this test come out for CCOc1c(N=Nc2cccc([N+](=O)[O-])c2)c(C)nn1C(N)=S ?
inactive

Kindly provide the recorded test outcome for the following molecule: OCC1COC(c2ccc(Cl)cc2)O1 (stereo not drawn)
inactive

Could you please tell me the result logged for c1ccc2c(c1)nnn2CN1CCOCC1 in this assay?
inactive

* * *

experiment: NCI Yeast Anticancer Drug Screen. Data for the mlh1 rad18 strain (AID 175); conditions: S. cerevisiae mlh1 rad18 strain growth inhibition; at 50.0 µM; stronger effect = higher value
About 79,000 compounds went through this panel and 15% of them were active in at least one assay; those are over-represented in the sample as a whole. The source made the active and inactive calls. Rule as the data show it: active = growth inhibition above about 70%; inactive = the rest. Where a SMILES comes first, the peptide text is derived from it. [ ]: non-standard residue; d: D form. The star is where a group is joined. Hyp = O=C(O)[CH]1C[CH](O)CN1; Cbz = O=C(OCc1ccccc1)*
Assay Metric: growth inhibition

Check out these entries, answers already filled in.
Compound	Result
c1ccc(SCN(CSc2ccccc2)c2ccccc2)cc1	14.8% (inactive)
NC(=O)CNC(=O)C1CC(O)CN1C(=O)C1CCCN1C(=O)OCc1ccccc1 (stereo not drawn) (Cbz-Pro-[Hyp]-Gly-NH2; configuration not given here)	2.2% (inactive)
COC(=O)c1ccc(C(=O)OC)c2nc3cc(C)c(C)cc3nc12	12% (inactive)
COC(=O)C(=O)C1CCc2c(C(=O)OC)nc3[nH]n(-c4ccccc4)c(=O)c3c21 (stereo not given)	0.25% (inactive)
O=C(O)c1ccc2c(c1)CC1(C2)Cc2ccccc2C1=O (stereo not given)	-2.75% (inactive)
C=CCCCCC1CCC2CCC(CCCCC=C)N12 (stereo not given)	35.9% (inactive)
O=S1(=O)CCCCc2ccccc21	-23.2% (inactive)
CCOC(=O)C(Br)CN1C(=O)c2ccccc2C1=O (stereo not given)	13.6% (inactive)
CC1=CC(=C2C=CC(=O)C=C2)C=C(C)N1C	-3.65% (inactive)

Attention now turns to another entry.
Report growth inhibition for CCOC(=O)c1ccc(CSc2ccccc2C(=O)OCC)cc1 please.
-43.2% (inactive)

* * *

assay: NCI Yeast Anticancer Drug Screen. Data for the mec2-1 strain (AID 157); conditions: S. cerevisiae mec2-1 strain, at 50.0 µM, stronger effect = higher value
About 79,000 compounds went through this panel and 15% of them were active in at least one assay; those are over-represented in the sample as a whole.
Assay Metric: growth inhibition (%)
The reply should contain only the number, in %.

Look at this molecule and give its reported growth inhibition. CCC(CC)(C[NH-])C[NH-].[Cl][Pt+2][Cl]
41.7

* * *

experiment: NCI Yeast Anticancer Drug Screen. Data for the mlh1 rad18 strain (AID 175); conditions: S. cerevisiae mlh1 rad18 strain growth inhibition; at 50.0 µM; stronger effect = higher value
About 79,000 compounds went through this panel and 15% of them were active in at least one assay; those are over-represented in the sample as a whole. Where a SMILES comes first, the peptide text is derived from it. [ ]: non-standard residue; d: D form. The star is where a group is joined. Cbz = O=C(OCc1ccccc1)*; Nva = CCC[CH](N)C(=O)O
Mark n for growth inhibition values under 10%, and y for everything at or above.

                                   compound  label
0  COc1ccc(/C=C2/CSCC3=C2NC(=S)NC3c2ccc(OC)c(OC)c2OC)c(OC)c1OC (stereo not given)      y
1  CCCC(C)CCCC(=O)c1ccc2cc(OC)ccc2c1 (stereo not given)      n
2  CCCC(NC(=O)OCc1ccccc1)C(=O)NC(CCSC)C(=O)O (stereo not given) (Cbz-[Nva]-Met-OH; configuration not given here)      n
3  COc1cc(C(=O)Oc2c(C#N)sc3c2c(=O)n(-c2ccccc2)c(=S)n3-c2ccccc2)cc(OC)c1OC      y

Continue with the next compound.
Determine whether this compound has growth inhibition no lower than 10%: COC(=O)C1CCC(=O)N1C(c1ccc(OC)cc1)c1ccc2c(c1)OCO2 (stereo not given)
y

* * *

assay: NCI Yeast Anticancer Drug Screen. Data for the mlh1 rad18 strain (AID 175); details: S. cerevisiae mlh1 rad18 strain growth inhibition; at 50.0 µM; stronger effect = higher value
About 79,000 compounds went through this panel and 15% of them were active in at least one assay; those are over-represented in the sample as a whole. Calls of active or inactive are those of the source. Cut-off read from the data, not from the text of the source: active = growth inhibition above about 70%; inactive = the rest.
Assay Metric: growth inhibition

                             compound             result
0  COc1ccc(N(Cc2ccccc2)c2nn[nH]n2)cc1  -19.8% (inactive)

Which value of growth inhibition has been reported for CCC1Cc2ccccc2OC1=O (stereo not given) in the records?
1.55% (inactive)

growth inhibition for N#CC1(Nc2ccc(-c3ccc(NC4(C#N)CCCC4)cc3)cc2)CCCC1 ?
21.1% (inactive)

Given CC(C)CCC[C@@H](C)[C@H]1CC[C@H]2[C@@H]3CC=C4C[C@@H](Cl)CC[C@]4(C)[C@H]3CC[C@]12C , state its recorded growth inhibition.
-0.35% (inactive)

I would be grateful if you could share the reported growth inhibition for Cc1ccc(Cl)cc1NC(=O)Oc1cc(C)c(Cl)c(C)c1 .
4.35% (inactive)

Find the recorded growth inhibition belonging to CCC1=CC(C=O)N(C(C)=O)c2ccccc21 (stereo not given) and report it.
-2.5% (inactive)

* * *

assay: NCI Yeast Anticancer Drug Screen. Data for the sgs1 mgt1 strain (AID 161);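 note: 0% = growth of cultures given vehicle only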; conditions: S. cerevisiae sgs1 mgt1 strain, at 50.0 µM, stronger effect = higher value
Compounds without any hit were thinned out: in the full panel of roughly 79,000, 15% have a hit. Calls of active or inactive are those of the source. Cut-off read from the data, not from the text of the source: active = growth inhibition above about 70%; inactive = the rest.
Assay Metric: growth inhibition

In [3]: df
Out[3]:
                                   molecule            result
0  CCCCCCCCCCCCOc1ccc(Sc2ccc([N+](=O)[O-])cc2)cc1  35.1% (inactive)

Give the measured growth inhibition of CCOC(=O)C(NC(=O)Cc1ccccc1)C(=O)O (configuration not stated) .
-3.2% (inactive)

What measured growth inhibition goes with COC1OC(COC(=O)c2ccccc2)C(OC(=O)c2ccccc2)C(OC(=O)c2ccccc2)C1OC(=O)c1ccccc1 (configuration not stated) ?
-13.6% (inactive)

Given the entry CC/C(CC(=O)CCC(=O)Nc1ccccc1[N+](=O)[O-])=N/NC(=O)C[n+]1ccccc1 , report its measured growth inhibition.
-56.1% (inactive)

Return reported growth inhibition; argument: S=c1nc[nH]c2c1CNC2
-5.4% (inactive)

Please look up its growth inhibition: Cc1cn(C2CC(O)C(CO)O2)c(=O)[nH]c1=S (configuration not stated)
-3.5% (inactive)

Which value of growth inhibition has been reported for c1ccc(-c2nnc(-c3ccccc3)c3nonc23)cc1 in the records?
9.1% (inactive)
